Each entry below lists one item and its recorded 100 nL (luminescence) value.
# TGT: Nrf2-Keap1 complex (Homo sapiens)
# Sequence (Q14145 whole entry, one chain of several): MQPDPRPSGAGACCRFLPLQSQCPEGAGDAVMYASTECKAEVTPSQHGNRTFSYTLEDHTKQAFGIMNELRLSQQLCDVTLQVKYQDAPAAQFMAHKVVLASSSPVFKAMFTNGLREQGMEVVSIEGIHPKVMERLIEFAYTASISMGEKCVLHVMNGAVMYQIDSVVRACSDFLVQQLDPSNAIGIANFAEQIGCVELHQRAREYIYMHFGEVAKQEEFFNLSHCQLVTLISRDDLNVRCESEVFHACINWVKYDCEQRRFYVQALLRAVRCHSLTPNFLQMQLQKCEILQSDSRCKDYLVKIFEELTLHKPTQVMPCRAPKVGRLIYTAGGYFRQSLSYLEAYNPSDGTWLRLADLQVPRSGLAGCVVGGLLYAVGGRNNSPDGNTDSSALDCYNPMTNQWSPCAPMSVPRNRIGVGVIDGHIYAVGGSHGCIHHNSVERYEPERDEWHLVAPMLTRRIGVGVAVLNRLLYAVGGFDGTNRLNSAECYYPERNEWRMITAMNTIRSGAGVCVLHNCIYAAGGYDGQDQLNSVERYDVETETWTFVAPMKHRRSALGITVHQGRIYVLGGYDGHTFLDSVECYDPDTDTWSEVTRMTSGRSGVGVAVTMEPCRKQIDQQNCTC
# PROTOCOL_DETAILS: cell-based
# Assay type: cell-based
# APPLIED_CONDITIONS: Table 2; 100 nL compound; screen run at 16 and 32 μM, 3 hr
Counter-ions that a name gives are not always drawn.

MOLECULE: COc1ccc2c(c1)OC/C(=C/c1ccc(OC)c(OC)c1)C2=O [SAPPANONEATRIMETHYLETHER]
100 nL (luminescence): 3652
//
MOLECULE: C[C@@H]1C(=O)O[C@H]2[C@H]1CC[C@@]1(C)C=CC(=O)[C@@]3(C)O[C@@]213 [EPOXY(4,5alpha)-4,5-DIHYDROSANTONIN]
100 nL (luminescence): 3828
//
MOLECULE: CO/N=C(\C(=O)N[C@@H]1C(=O)N2C(C(=O)O)=C(COC(C)=O)CS[C@H]12)c1csc(N)n1 [CEFOTAXIMESODIUM, reference compound]
100 nL (luminescence): 968
//
MOLECULE: COc1ccc2c(c1)OC/C(=C\c1ccc(OC)c(O)c1)C2=O [SAPPANONEADIMETHYLETHER]
100 nL (luminescence): 6124
//
MOLECULE: O=C(/C=C/c1ccccc1)c1ccc(O[C@@H]2O[C@H](CO)[C@@H](O)[C@H](O)[C@H]2O)cc1O [2′,4′-DIHYDROXYCHALCONE4′-GLUCOSIDE]
100 nL (luminescence): 1056
//
MOLECULE: CC1(C)C(=O)C=C[C@]2(C)[C@H]3CC[C@@]4(C)[C@H](c5ccoc5)OC(=O)[C@H]5O[C@]54[C@]3(C)C(=O)C[C@@H]12 [DEACETOXY-7-OXOGEDUNIN]
100 nL (luminescence): 1048
//
MOLECULE: NCCCCNCCCN [SPERMIDINETRIHYDROCHLORIDE]
100 nL (luminescence): 1000
